src = the supplement of paper PMC12698765

system: 409B2 hiPSC (iCRISPR Cas9, FRMD7 editing); assay: NHEJ-attributed indel frequency relative to solvent control (fold (ratio to mock)); higher = more NHEJ outcomes; conditions: 50000 nM
Quantity kind: NHEJ-attributed indel frequency
Lab note: write the figure by itself, no unit.

[ask] Data request, read-out NHEJ-attributed indel frequency, for CN(C)C(=O)Oc1cccc([N+](C)(C)C)c1 [Hodostin] (in DMSO)
[reply] 0.992

[ask] Also need O=[N+]([O-])O[C@@H]1CO[C@H]2[C@@H]1OC[C@@H]2O [Isosorbide 5-mononitrate] (in DMSO) , thanks.
[reply] 0.983

[ask] Also need C[C@]12CC[C@@H]3c4ccc(O)cc4CC[C@H]3[C@@H]1C[C@@H](O)[C@@H]2O [Estriol] (in DMSO) , thanks.
[reply] 0.986

====

test system: 409B2 hiPSC (iCRISPR Cas9, FRMD7 editing); test: cell survival relative to solvent control (fold (ratio to mock)); higher = more surviving cells; settings: 100 nM
Structures can show the parent of a compound that is named as a salt.
# label = criterion met if cell survival >= 0.9 else criterion not met

[ask] Could you tell me if the measured cell survival of CS(=O)(=O)N1CCN(Cc2cc3nc(-c4cccc5[nH]ncc45)nc(N4CCOCC4)c3s2)CC1 [GDC-0941] (in DMSO) reaches 0.9 or more?
[reply] criterion not met

[ask] Also need Nc1ccn([C@@H]2O[C@H](CO)[C@@H](O)[C@@H]2O)c(=O)n1 [Cytarabine hydrochloride] (in DMSO) , thanks.
[reply] criterion not met

[ask] Also need CNCc1ccc(-c2[nH]c3cc(F)cc4c3c2CCNC4=O)cc1 [Rucaparib (free base)] (in DMSO) , thanks.
[reply] criterion not met

[ask] Also need NC(=O)CC[C@@H](N)C(=O)O [D-Glutamine] (in H2O) , thanks.
[reply] criterion met

[ask] Also need CC(C)(c1ccc(O)cc1)c1ccc(O)cc1 [Bisphenol A] (in DMSO) , thanks.
[reply] criterion met

[ask] Also need C[C@@H]1O[C@@H](O[C@@H]2[C@@H](O)[C@H](OCCc3ccc(O)c(O)c3)O[C@H](CO)[C@H]2OC(=O)/C=C/c2ccc(O)c(O)c2)[C@H](O)[C@H](O)[C@H]1O [Verbascoside] (in DMSO) , thanks.
[reply] criterion met

[ask] Also need CC(=O)O[C@]1(C(C)=O)CC[C@H]2[C@@H]3C=C(C)C4=CC(=O)CC[C@]4(C)[C@H]3CC[C@@]21C [Megestrol Acetate] (in EtOH) , thanks.
[reply] criterion met

====

system: 409B2 hiPSC (iCRISPR Cas9, FRMD7 editing); test: cell survival relative to solvent control (fold (ratio to mock)); higher = more surviving cells; conditions: 500 nM
Structures can show the parent of a compound that is named as a salt.
So I've got a bunch of compounds here, and I need their cell survival values.
Lab note: write the figure by itself, no unit.

[ask] Give 409B2 hiPSC (iCRISPR Cas9, FRMD7 editing) cell survival for Cc1c(C(C)C)c(=O)n(-c2ccccc2)n1C [Propyphenazone (4-Isopropylantipyrine)] (in DMSO)
[reply] 1.24

[ask] Also need O=C1NC(=O)[C@@H](c2cn3c4c(cccc24)CCC3)[C@@H]1c1c[nH]c2ccccc12 [Tivantinib (ARQ 197)] (in DMSO) , thanks.
[reply] 1.04

[ask] Also need CC(C)/N=c1\cc2n(-c3ccc(Cl)cc3)c3ccccc3nc-2cc1Nc1ccc(Cl)cc1 [Clofazimine] (in DMSO) , thanks.
[reply] 1.06

[ask] Also need CC1(C)S[C@@H]2[C@H](NC(=O)COc3ccccc3)C(=O)N2[C@H]1C(=O)O [Penicillin V potassium salt] (in DMSO) , thanks.
[reply] 1.15

[ask] Also need NC(=O)CC[C@@H](N)C(=O)O [D-Glutamine] (in H2O) , thanks.
[reply] 0.888

[ask] Also need CS(=O)(=O)N1CCN(Cc2cc3nc(-c4cccc5[nH]ncc45)nc(N4CCOCC4)c3s2)CC1 [GDC-0941] (in DMSO) , thanks.
[reply] 0.15

[ask] Also need C[C@@H]1O[C@@H](O[C@@H]2[C@@H](O)[C@H](OCCc3ccc(O)c(O)c3)O[C@H](CO)[C@H]2OC(=O)/C=C/c2ccc(O)c(O)c2)[C@H](O)[C@H](O)[C@H]1O [Verbascoside] (in DMSO) , thanks.
[reply] 1.04

[ask] Also need CCCCCCCCCCCCCC(=O)O [Myristic Acid] (in DMSO) , thanks.
[reply] 1.49

[ask] Also need Nc1ccn([C@@H]2O[C@H](CO)[C@@H](O)[C@@H]2O)c(=O)n1 [Cytarabine hydrochloride] (in DMSO) , thanks.
[reply] 0.161

[ask] Also need CC(=O)O[C@]1(C(C)=O)CC[C@H]2[C@@H]3C=C(Cl)C4=CC(=O)[C@@H]5C[C@@H]5[C@]4(C)[C@H]3CC[C@@]21C [Cyproterone Acetate] (in DMSO) , thanks.
[reply] 1.23

[ask] Also need N=C(NCCCCCCNC(=N)NC(=N)Nc1ccc(Cl)cc1)NC(=N)Nc1ccc(Cl)cc1 [Chlorhexidine HCl] (in DMSO) , thanks.
[reply] 1.24

[ask] Also need C1CCN2C[C@@H]3C[C@@H](CN4CCCC[C@@H]34)[C@H]2C1 [Sparteine] (in DMSO) , thanks.
[reply] 1.26

[ask] Also need CC[C@H](CO)Nc1nc(NCc2ccccc2)c2ncn(C(C)C)c2n1 [Roscovitine (Seliciclib,CYC202)] (in DMSO) , thanks.
[reply] 1.17

[ask] Also need C[C@]12CC[C@@H]3c4ccc(O)cc4CC[C@H]3[C@@H]1C[C@@H](O)[C@@H]2O [Estriol] (in DMSO) , thanks.
[reply] 0.944

====

system: 409B2 hiPSC (iCRISPR Cas9, FRMD7 editing); test: MMEJ-attributed deletion frequency relative to solvent control (fold (ratio to mock)); higher = more MMEJ outcomes; settings: 20 nM
Quantity kind: MMEJ-attributed deletion frequency

[ask] Give 409B2 hiPSC (iCRISPR Cas9, FRMD7 editing) MMEJ-attributed deletion frequency for C[C@]12CC[C@@H]3c4ccc(O)cc4CC[C@H]3[C@@H]1C[C@@H](O)[C@@H]2O [Estriol] (in DMSO)
[reply] 0.961

[ask] Also need CO[C@@H]1[C@H](OC(=O)/C=C/C=C/C=C/C=C/C(=O)O)CC[C@]2(CO2)[C@H]1[C@@]1(C)O[C@@H]1CC=C(C)C [Fumagillin] (in DMSO) , thanks.
[reply] 0.749

[ask] Also need CC(=O)O[C@]1(C(C)=O)CC[C@H]2[C@@H]3C=C(C)C4=CC(=O)CC[C@]4(C)[C@H]3CC[C@@]21C [Megestrol Acetate] (in EtOH) , thanks.
[reply] 1.01

[ask] Also need CSCCC(N)C(=O)O (racemic) [DL-Methionine] (in H2O) , thanks.
[reply] 0.912
